experiment: folding stability dG unfold (combined trypsin and chymotrypsin); higher = more stable
Rule: folding stability dG unfold under 1 kcal/mol gives not met, otherwise met.

{"columns": ["monomer_sequence", "label_value"],
 "data": [
  ["SAGGSAGGSAGITIWFPYDNIPEILEEAQKNGMEIKSVERVPDGWYLIKMPGKPIEIHIWSAGGSAGGSAGG [r17_379_TrROS]", "met"],
  ["SAGGSAKVTIDTDNGIIKIEVGGKLIAEIEIPPGFPGGIYLEYEPNPPTLKFYIYTKNGPVYINDISAGGSA [r2_399_TrMRF]", "met"],
  ["SAGGSAGGKKKVIEITVKITLFNENGEEVATFEAKITIIEDKETKEYYAVITFKDGSTLVIKLPSAGGSAGG [r6_923_TrROS_Hall]", "met"],
  ["SAGGMMTVRIVIEKDGKKITITAKVTKIEFDEETGKLTITFEDGSKKEIDLDKLKIKKIEVEPAPEEESAGG [r13_636_TrROS_Hall]", "met"],
  ["SAGGSAGGSAGGMTKTYVTPVSPDVSEEEIKEKLAPEVSSVEVERDEESGTVTITTTLDSAGGSAGGSAGGS [r10_1007_JUSTAS]", "not met"],
  ["SAGGMIEIEYNPDQGYFRITVWPMNPKNGKPKSKEIPIPFEGDPEEALDKVKDLIDDHPGYHVDIEPYSAGG [r13_284_TrROS]", "met"]
]}

# evaluate next
// inclusive: folding stability dG unfold at least 1 kcal/mol? input: SAGGSAGGGPDLKVTDIEFDPETGEIRIRTEAGGKLVAEVTIKGAPPVPVYPDKDGNWYPAGAKSAGGSAGG [r6_832_TrMRF]
not met

These data points were gathered from the supplement of paper PMC12764529.
